# Tested on: OVCAR-3
# Protocol: NCI tumour cell line growth inhibition, 48 h
Calls of active or inactive are those of the source. Cut-off read from the data, not from the text of the source: active = GI50 up to about 1.1 µM and inactive = higher.
Labels: t = active, f = inactive

>>> df
                                    compound  class_name
 0                  S=P(N1CCCC1)(N1CC1)N1CC1           f
 1  CCCCCCCCCCCC(=O)N(CCCCCCCCC)CC(O)C(O)C(OC1OC(CO)C(O)C(O)C1O)C(O)CO (stereo unspecified)           f
 2                        CCCCCCCCCCSC(=O)NC           f
 3  Cc1ccc(C2CC(c3ccc([N+](=O)[O-])cc3)=Nc3ccccc3S2)cc1 (stereo unspecified)           f
 4  Nc1ncnc2c1ncn2[C@@H]1O[C@H](C(=O)O)[C@@H](O)[C@H]1O [5'-CARBOXY ADENOSINE]           f
 5   COCN1C(=O)[C@@H]2CCCN2C(=O)c2ccc(N)cc21           f
 6  Cc1cc(O)c2c(c1O)C(=O)C1=C(C2=O)C(=O)C2C(O)C1C1C(O)CC(O)=C3C(=O)c4c(O)cc(C)c(O)c4C(=O)C321 (stereo unspecified)           f
 7  COC(=O)C(C)(C)NC(=O)C(Cc1ccccc1)Nc1ncnc2c1ncn2-c1ccc(OC)cc1 (stereo unspecified)           f
 8  COC(=O)[C@]12CSC[C@H]1C[C@H](c1ccccc1OC)N2           f
 9      OC(Cn1cncn1)(Cn1cncn1)c1ccc(Cl)cc1Cl           f
10  COC(=O)C1CCC(=O)N1C(c1ccc(OC)cc1)c1cc(OC)c(OC)c(OC)c1 (stereo unspecified)           t

###

Listing of recorded GI50 by entry.
# Test system: SNB-19
# Protocol: NCI tumour cell line growth inhibition, 48 h
The source made the active and inactive calls. Rule as the data show it: active = GI50 up to about 1.1 µM and inactive = higher.
Measured Endpoint: GI50

Compound	Result
COc1cc2c3c(c1OC)Oc1ccc(cc1)CC1c4c(cc(OC)c(OC)c4Oc4ccc(cc4)CC3N(C)CC2)CCN1C (centres undefined)	33 µM (inactive)
CC(C)(C)C1CCC(=O)/C(=C/CC2CC(=O)N(c3ccccc3)C(=O)C2)C1 (centres undefined)	22 µM (inactive)
CCOP(=O)(OCC)C(Nc1ccc(Cl)cc1)c1ccc(F)cc1 (centres undefined)	26.7 µM (inactive)
O=C(O)/C=C/c1ccc(OS(=O)(=O)O)cc1	> 100 µM (inactive)
CC(=O)OCC1OC(OC2CC3C(C)(C)C(OC(C)=O)CC[C@]3(C)C3CCC45CC4(CCC5[C@@H](C)C[C@H](O)C(O)C(C)(C)O)[C@]23C)C(O)C(O)C1O (some centres undefined)	> 10 µM (inactive)
CN(C)CCCNC(=O)c1cc(NC(=O)c2cc(NC(=O)CCCn3c4ccccc4c4ccccc43)cn2C)cn1C	10.5 µM (inactive)
Cc1csc(-c2cn(C)c3c2C(=O)C(=N)C=C3O)n1	7.38 µM (inactive)
CC(=O)OC1CC[C@@]2(C)C(=CC[C@@H]3[C@@H]2CC[C@]2(C)Nc4nn(S(C)(=O)=O)cc4C[C@@H]32)C1 (some centres undefined)	79.4 µM (inactive)
COC(=O)C1=C(O)C(C(=O)OC)[C@@]2(O)[C@@H](C(=O)OC)[C@H](C)[C@@H](C)[C@@H]1[C@@H]2C(=O)OC (some centres undefined)	> 100 µM (inactive)
O=P1(O)C=CC2(CCCC2)O1	> 100 µM (inactive)
O=C(O)c1c2c(cc3c1CC1(Cc4cc5c(cc4C1=O)CCC5)C3)CCC2 (centres undefined)	> 100 µM (inactive)
C=C(C)C1Cc2c(cc(OC)c3c(=O)c4ccccc4n(C)c23)O1 (centres undefined)	> 100 µM (inactive)
CC(C)(C)/N=C1/CC(C)(C)c2ccccc2/C(=N\c2ccccc2)S1	36.2 µM (inactive)
CCOC(=O)CN1C(=O)c2c(NC(=O)C(=O)O)cccc2S1(=O)=O	> 100 µM (inactive)
CC(=O)CC(C)(C)NC(=O)[C@@]1(O)CC[C@H]2[C@@H]3CCC4=CC(=O)CC[C@@H]4[C@H]3CC[C@@]21C	> 100 µM (inactive)
N/C(=N/c1ccc(O)cc1)S(=O)O	> 100 µM (inactive)
COC(=O)C(C)(C)NC(=O)C(Cc1ccccc1)Nc1ncnc2c1ncn2-c1ccc(OC)cc1 (centres undefined)	> 100 µM (inactive)
COc1ccc2c(C)cc(C)nc2n1	> 100 µM (inactive)
O=C1CCCCC1S(=O)(=O)c1ccccc1 (centres undefined)	> 100 µM (inactive)

The values you see were collected from ChEMBL document CHEMBL1201862.
